- system_tested: Aspartate--tRNA(Asp/Asn) ligase (Mycobacterium tuberculosis (strain ATCC 25618 / H37Rv))
- test_method_notes: Assay for Asp RNA synthetase-1 from Mycobacterium tuberculosis
- Assay type: functional
- Design: scale not given: in the data most compounds retested in dose-response had high values
- condition_label: 30 µM
Listing of entries alongside the reported Percent Effect.
Answer format: numeric, % implied, no suffix.

Examples with their reported Percent Effect follow.
{"columns": ["compound", "Percent Effect, %"],
 "data": [
  ["Cc1ccc(C(NC(=O)CC2CCN(C(C)C)CC2)C(=O)O)cc1 (configuration not stated)", -0.279],
  ["COc1cnc(C2(O)CCN(C(=O)c3cccnc3)CC2)c(OC)n1", 0.313]
]}

Query: Which measured Percent Effect value corresponds to Cn1cccc1CNC(=O)N(CCO)C1CCCc2ccccc21 (configuration not stated) ?
Response: -1.95

Query: Please look up its Percent Effect: Cc1csc(N2CCCN(Cc3noc(C)n3)CC2)n1
Response: 1.56

Query: I'd like to know its Percent Effect. The compound in question is CCn1nc(C)c(CNC(=O)c2cn(CCC3CCCCN3)nn2)c1C (configuration not stated)
Response: 0.0575

Values compiled from ChEMBL document CHEMBL3988442.
